Provenance of the data: ChEMBL document CHEMBL5352403

Biological target: Amine oxidase [flavin-containing] B (Homo sapiens, UniProt P27338)
Sequence (P27338 whole entry): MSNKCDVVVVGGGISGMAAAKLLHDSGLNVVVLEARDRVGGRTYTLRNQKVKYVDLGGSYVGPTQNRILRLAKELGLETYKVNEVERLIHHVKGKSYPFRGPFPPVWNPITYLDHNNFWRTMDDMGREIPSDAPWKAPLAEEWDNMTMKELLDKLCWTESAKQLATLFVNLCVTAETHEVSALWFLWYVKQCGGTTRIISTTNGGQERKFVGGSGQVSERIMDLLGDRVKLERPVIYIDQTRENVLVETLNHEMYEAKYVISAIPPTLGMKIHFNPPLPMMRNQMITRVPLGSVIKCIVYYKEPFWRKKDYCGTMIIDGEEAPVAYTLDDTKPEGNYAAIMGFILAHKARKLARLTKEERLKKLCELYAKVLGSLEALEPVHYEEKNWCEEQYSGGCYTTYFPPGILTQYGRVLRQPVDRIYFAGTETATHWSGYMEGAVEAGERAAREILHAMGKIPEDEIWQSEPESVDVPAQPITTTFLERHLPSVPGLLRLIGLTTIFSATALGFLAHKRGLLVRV
Assay: Inhibition of recombinant human MAO-B using p-tyramine as substrate incubated for 15 mins by Amplex Red reagent and horseradish peroxidase based fluorometric analysis
REPORTED_PROPERTY: pIC50
To interpret pIC50, take it as minus log10 of a concentration measured in moles per litre.

Task: Entry O=c1cc(CCCl)c2ccc(OCc3cccc(Cl)c3)cc2o1 , system Amine oxidase [flavin-containing] B (Homo sapiens, UniProt P27338): what pIC50 was measured?
Result: 9.43

Task: Observed pIC50 on Amine oxidase [flavin-containing] B (Homo sapiens, UniProt P27338) for O=C1CCc2ccc(OCc3ccccc3F)cc2O1 , please.
Result: 9.43

Task: What value of pIC50 on Amine oxidase [flavin-containing] B (Homo sapiens, UniProt P27338) does COc1cccc(-c2cc3cc(Cl)ccc3oc2=O)c1 have?
Result: 9.00

Task: What is its pIC50 for Amine oxidase [flavin-containing] B (Homo sapiens, UniProt P27338)? Entry: COc1ccc(-c2cc3cc(Cl)ccc3oc2=O)cc1
Result: 8.40

###

Would you kindly list IC50 for each of these molecules?
target: Amine oxidase [flavin-containing] A (Homo sapiens); test: Inhibition of recombinant human MAO-A using kynuramine as substrate incubated for 30 mins by fluorimetric analysis
A number alone suffices; assume µM.

Task: Look at this molecule and give its reported IC50. O=C(CSc1nc2cc(Cl)ccc2s1)N(Cc1cccc([N+](=O)[O-])c1)c1ccc(F)cc1
Result: 17

Task: Need IC50, item O=C(/C=C/C=C/c1ccccc1)c1ccco1
Result: 17

###

molecular target: Amine oxidase [flavin-containing] A (Homo sapiens, UniProt P21397); test: Inhibition of human MAO-A
Sequence (P21397 whole entry): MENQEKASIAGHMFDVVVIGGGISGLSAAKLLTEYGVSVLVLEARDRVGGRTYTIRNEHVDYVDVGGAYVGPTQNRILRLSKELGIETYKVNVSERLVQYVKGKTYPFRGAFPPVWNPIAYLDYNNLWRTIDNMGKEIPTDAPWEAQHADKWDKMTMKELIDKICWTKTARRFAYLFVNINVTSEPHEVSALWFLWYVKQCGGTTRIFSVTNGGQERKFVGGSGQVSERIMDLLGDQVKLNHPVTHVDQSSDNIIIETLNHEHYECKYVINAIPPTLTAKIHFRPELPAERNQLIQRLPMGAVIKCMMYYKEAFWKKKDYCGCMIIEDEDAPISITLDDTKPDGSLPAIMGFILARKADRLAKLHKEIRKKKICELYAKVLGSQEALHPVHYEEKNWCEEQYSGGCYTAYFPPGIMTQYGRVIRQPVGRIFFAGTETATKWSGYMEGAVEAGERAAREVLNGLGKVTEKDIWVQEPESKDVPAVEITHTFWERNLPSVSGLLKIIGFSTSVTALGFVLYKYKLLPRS
REPORTED_PROPERTY: IC50 (nM)
Note: unit nM is implicit; provide only the numeric part.

Task: Which IC50 value is on record for COCCNc1nnc(SCC(=O)Nc2nc3ccc([N+](=O)[O-])cc3s2)s1 ?
Result: 107

Task: Which IC50 is reported for this molecule? O=C(/C=C/c1ccc(Cl)cc1)c1ccc2c(c1)OCO2
Result: 107

Task: Please look up its IC50: CCCCNc1nnc(SCC(=O)Nc2nc3ccc([N+](=O)[O-])cc3s2)s1
Result: 128

###

target: Amine oxidase [flavin-containing] B (Rattus norvegicus); assay: Inhibition of rat brain mitochondria MAO-B using p-tyramine as substrate incubated for 15 mins by Amplex Red reagent and horseradish peroxidase based fluorometric analysis
Sequence (P19643 whole entry): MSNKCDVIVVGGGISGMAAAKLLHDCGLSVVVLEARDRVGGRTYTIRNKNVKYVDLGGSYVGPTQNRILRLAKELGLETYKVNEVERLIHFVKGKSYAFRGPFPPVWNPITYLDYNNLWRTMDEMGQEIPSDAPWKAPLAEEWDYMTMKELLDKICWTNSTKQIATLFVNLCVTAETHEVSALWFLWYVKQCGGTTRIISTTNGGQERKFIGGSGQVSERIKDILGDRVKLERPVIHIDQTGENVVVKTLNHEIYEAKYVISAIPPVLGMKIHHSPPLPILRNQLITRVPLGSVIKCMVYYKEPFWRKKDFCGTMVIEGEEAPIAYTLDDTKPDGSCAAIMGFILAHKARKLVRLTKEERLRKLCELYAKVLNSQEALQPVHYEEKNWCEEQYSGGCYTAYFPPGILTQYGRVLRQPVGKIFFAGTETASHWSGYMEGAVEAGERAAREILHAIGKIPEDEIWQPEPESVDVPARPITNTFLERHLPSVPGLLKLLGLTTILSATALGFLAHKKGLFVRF
REPORTED_PROPERTY: pIC50
Lab note: report pIC50 as minus log10 of the concentration in molar units, number only.

Task: Please give the measured pIC50 for this compound: Cc1cc(=O)c(O)c(CO)n1CCCn1cc(COc2cc3ccccc3oc2=O)nn1
Result: 8.30

Task: GET /values?readout=pIC50&item= Cc1ccc(/C=N/NC(=O)c2cc(-c3ccccc3)on2)cc1
Result: 8.30

###

molecular target: UniProt P21397; experiment: Competitive inhibition of recombinant human MAO-A using tyramine hydrochloride as substrate by Ampliflu red reagent and horseradish peroxidase based fluorescence microplate reader analysis
For each of the molecules below, state its pIC50.
To interpret pIC50, take it as minus log10 of a concentration measured in moles per litre.

Task: Any idea what its pIC50 is? The molecule is O=C(/C=C/c1ccc(F)cc1)c1ccc2c(c1)OCCO2
Result: 7.02

Task: May I ask what pIC50 has been recorded for Clc1ccc(-c2csc(N/N=C(/CSc3nc4ccccc4s3)c3ccccc3)n2)c(Cl)c1 ?
Result: 6.85

Task: Any idea what its pIC50 is? The molecule is O=[N+]([O-])c1ccc(-c2csc(N/N=C(/CSc3nc4ccccc4s3)c3ccccc3)n2)cc1
Result: 7.02

###

molecular target: Amine oxidase [flavin-containing] B (Homo sapiens, UniProt P27338); assay: Inhibition of recombinant human MAO-B using kynuramine as substrate incubated for 20 mins by fluorescence based assay
REPORTED_PROPERTY: pIC50
Lab note: report pIC50 as minus log10 of the concentration in molar units, number only.

Task: Which measured pIC50 value corresponds to CCOC(=O)C(C(=O)N/N=C/c1ccc([N+](=O)[O-])cc1)[n+]1ccc2ccccc2c1 (configuration not stated) ?
Result: 7.70

Task: Using the record for O=C(/C=C/c1ccc(Cl)cc1)c1ccc2c(c1)OCO2 , report its pIC50.
Result: 7.70
